Hello, the source for this data is patent US20220204601A1, in case you need it.

Molecular target: T1, K280-ac protein fragment (human)
T1 construct: also called mAC
T1 peptide: VQIINK(Ac)KLDLSN
Assay: ELISA on K280-ac coated at 250 ng/well, HRP anti-human IgG
Ends that are not written are not given here.
# strict inequality: Absorbance at 450nm at 0.03ug/well < 0.5 yields true (1), everything else yields false (0)

**Query** Is Absorbance at 450nm at 0.03ug/well of v12 (antibody, V domains shown, also called Y01h01v12; ADEL-Y01h v12 antibody) VH: EVQLVESGGGLVQPGRSLRLSCTVSGDSITSGYWNWFRQAPGKGLEYVGYIRYSGRTYYNPSLKSRFTISRDTSKNIAYLQMNSLKTEDTAVYYCASVYFTYWGQGTLVTVSS VL: EVVLTQSPGTLSLSPGERATLSCKSSQSLLDSDGKTYLNWYQQKPGQSPKRLISLVSKLDSGIPDRFSGSGSGTDFTLTISRLEPEDFAVYYCWQGSHFPYTFGQGTKLEIK strictly below 0.5?
**Result** true (1)

**Query** Quick check: does ADEL-Y01h v06 antibody (antibody, V domains shown, Humanized antibody; It was detected with anti-human IgG; also called Y01h01v06) VH: EVQLQQSGPGLVKPSQTLSLTCAVSGDSITSGYWNWIRQSPSRGLEWLGYIRYSGRTYYNPSLKSRITINRDTSKNQFSLQLNSVTPEDTAVYYCASVYFTYWGQGTLVTVSS VL: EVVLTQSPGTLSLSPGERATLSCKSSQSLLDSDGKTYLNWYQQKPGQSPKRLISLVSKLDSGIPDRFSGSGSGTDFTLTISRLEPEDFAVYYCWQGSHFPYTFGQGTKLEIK have Absorbance at 450nm at 0.03ug/well under 0.5?
**Result** true (1)

**Query** hey, is Absorbance at 450nm at 0.03ug/well for ADEL-Y01h01_v01 antibody (antibody, V domains shown, Humanized ADEL-Y01m; It was detected with anti-human IgG; also called ADEL-Y01h v01) VH: EVQLQESGPGLVKPSQTLSLTCTVSGDSITSGYWNWIRQPPGKGLEYIGYIRYSGRTYYNPSLKSRVTISRDTSKNQFSLKLSSVTAADTAVYYCASVYFTYWGQGTLVTVSS VL: DVVMTQSPLSLPVTLGQPASISCKSSQSLLDSDGKTYLNWFQQRPGQSPKRLISLVSKLDSGVPDRFSGSGSGTDFTLKISRVEAEDVGVYYCWQGSHFPYTFGQGTKLEIK lower than 0.5 or not?
**Result** false (0)

**Query** hey, is Absorbance at 450nm at 0.03ug/well for ADEL-Y01h v04 antibody (antibody, V domains shown, Humanized antibody; It was detected with anti-human IgG; also called Y01h01v04) VH: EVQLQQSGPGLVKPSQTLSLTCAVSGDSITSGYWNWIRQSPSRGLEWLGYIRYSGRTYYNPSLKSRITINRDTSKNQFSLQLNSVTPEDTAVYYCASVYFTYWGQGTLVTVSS VL: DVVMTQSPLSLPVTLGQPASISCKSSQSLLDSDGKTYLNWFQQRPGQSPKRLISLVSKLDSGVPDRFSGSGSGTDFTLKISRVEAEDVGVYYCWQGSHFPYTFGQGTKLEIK lower than 0.5 or not?
**Result** false (0)

**Query** Given the entry ADEL-Y01h v03 antibody (antibody, V domains shown, Humanized antibody; It was detected with anti-human IgG; also called Y01h01v03) VH: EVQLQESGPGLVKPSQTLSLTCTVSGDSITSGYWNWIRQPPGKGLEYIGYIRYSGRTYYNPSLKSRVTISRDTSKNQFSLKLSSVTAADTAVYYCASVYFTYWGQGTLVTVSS VL: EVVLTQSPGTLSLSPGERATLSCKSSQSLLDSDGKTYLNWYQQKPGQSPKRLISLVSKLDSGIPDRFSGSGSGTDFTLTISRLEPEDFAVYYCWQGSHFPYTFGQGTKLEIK , would its reported Absorbance at 450nm at 0.03ug/well be below 0.5?
**Result** true (1)
